- Target entity: HCV genotype 1b NS5B protein containing the S282T mutation (Hepatitis C virus genotype 1b, UniProt Q9WMX2, S2701T)
- Construct: HCV genotype 1b NS5B protein were used to generate recombinant HCV polymerases (with a deletion of the 21 carboxy terminal amino acids)
- Test details: HCV polymerase enzyme assay, S282T mutant
- Condition: nucleoside triphosphate; S282T genotype 1b NS5B; 2 h at 30° C.
Endpoint: IC50

{"Compound": "O=c1ccn([C@@H]2O[C@](F)(COP(=O)(O)OP(=O)(O)OP(=O)(O)O)[C@@H](O)[C@H]2F)c(=O)[nH]1", "IC50": "< 250 nM"}

The record that follows has no IC50 shown yet.
What IC50 value was documented for this compound, Nc1ccn([C@@H]2O[C@](F)(COP(=O)(O)OP(=O)(O)OP(=O)(O)O)[C@@H](O)[C@H]2F)c(=O)n1 ?
< 250 nM
